molecular target: Inadl_6, Q8NI35; assay: holdup assay; set-up: key: below the threshold = too weak to quantify, mostly under pKd 3.1 to 4; details: plain residues with an end cap or a label only (N-terminal biotin on a linker: ado-ado)
Sequence (Q8NI35 1058-1167): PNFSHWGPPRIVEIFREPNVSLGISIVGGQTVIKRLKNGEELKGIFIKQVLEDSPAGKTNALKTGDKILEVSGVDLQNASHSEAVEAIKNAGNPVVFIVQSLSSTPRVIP
Readout: pKd

Binder | pKd
PRISRSQSEL [CCDC134, Q9H6E4] | below the threshold
SARSRLSSNL [HCN2, Q9UL51] | below the threshold
TLPRKRMSSI [GPRC6A, Q5T6X5] | below the threshold
YRLAQESGLV [ABCC6, O95255] | below the threshold

Query (binder): NLSIEKETKL [ASNSD1, Q9NWL6] ; field requested: pKd
4.22

Query (binder): RKPKPSSSCC [RAB9A, P51151] ; field requested: pKd
below the threshold

Query (binder): TASPAKETSF [SLC2A7, Q6PXP3] ; field requested: pKd
below the threshold

Query (binder): IKAIVDLTGL [TRAF2, Q12933] ; field requested: pKd
below the threshold

Query (binder): SGSLKLMTTV [DACT1, Q9NYF0] ; field requested: pKd
below the threshold

Query (binder): SSALYGESDL [ACTN2, P35609] ; field requested: pKd
below the threshold

Query (binder): DTTVPESEDL [MYOZ2, Q9NPC6] ; field requested: pKd
below the threshold
